Exercise: for every item that follows, state its recorded Ki.
Biological target: BRD4 (BDI_K57-E168) (Homo sapiens, UniProt O60885)
Construct: BD1: amino acids K57-E168
Assay: TR-FRET bromodomain binding assay, first bromodomain of BRD4
Conditions: His-tagged BD1, 100 nM Alexa647 probe; TR-FRET protocol A-E given per row
Report the figure in nM without appending any unit label.

Reported Ki for BRD4 (BDI_K57-E168) (Homo sapiens, UniProt O60885), given Cn1cc(-c2cc(CS(=O)(=O)c3ccccc3)ccc2Oc2ccc(F)cc2F)c2cc[nH]c(=O)c21 [Example 58] ?
72

Reported Ki for BRD4 (BDI_K57-E168) (Homo sapiens, UniProt O60885), given Cn1cc(-c2cc(NS(C)(=O)=O)ccc2Oc2ccc(C#N)cc2)c2cc[nH]c(=O)c21 [Example 16] ?
2.1

Reported Ki for BRD4 (BDI_K57-E168) (Homo sapiens, UniProt O60885), given Cn1cc(-c2cc(S(C)(=O)=O)ccc2NCC2CCCC2)c2cc[nH]c(=O)c21 [Example 68] ?
103

Reported Ki for BRD4 (BDI_K57-E168) (Homo sapiens, UniProt O60885), given Cn1cc(-c2cc(NC(=O)Cc3cc(Cl)ccc3F)ccc2Oc2ccc(F)cc2F)c2cc[nH]c(=O)c21 [Example 159] ?
62.4

---

Target: BRD4 (BDI_K57-E168) (Homo sapiens)
Construct: BD1: amino acids K57-E168
Test: TR-FRET bromodomain binding assay, first bromodomain of BRD4
Conditions: His-tagged BD1, 100 nM Alexa647 probe; TR-FRET protocol A-E given per row
reportedProperty: Ki

Which Ki value is on record for CCOC(=O)c1cc2c(-c3cn(C)c4c(=O)[nH]ccc34)c(OCC3CC3)ccc2[nH]1 [Example 99] ?
> 2380 nM

Which Ki value is on record for Cn1cc(-c2cc(S(C)(=O)=O)ccc2OCCC2CCCCC2)c2cc[nH]c(=O)c21 [Example 36] ?
146 nM

Which Ki value is on record for Cn1cc(-c2cc(CN)ccc2Oc2ccc(F)cc2F)c2cc[nH]c(=O)c21 [Example 136] ?
1090 nM

Which Ki value is on record for Cn1cc(-c2cc(CNS(=O)(=O)Cc3ccc(C#N)cc3)ccc2Oc2ccc(F)cc2F)c2cc[nH]c(=O)c21 [Example 134] ?
103 nM

Which Ki value is on record for Cn1cc(-c2cc(S(C)(=O)=O)ccc2OCC2CC2)c2cc[nH]c(=O)c21 [Example 20] ?
18 nM

---

Tested on: breast cancer cell line MX-1
Test: MX-1 cell line proliferation assay
Assay type: cell-based
Conditions: Homo sapiens, MX1, 72 h, MX-1 cells, 3-day proliferation assay, Cell Titer Glo; read-out: Cellular proliferation EC50
reportedProperty: pEC50
# pEC50 = -log10(concentration in molar units)

Which pEC50 value is on record for Cn1cc(-c2cc(CS(C)(=O)=O)cc(C3CC3)c2Nc2ccc(F)cc2F)c2cc[nH]c(=O)c21 [Example 202] ?
7.01

Which pEC50 value is on record for Cn1cc(-c2cc(NS(C)(=O)=O)c(Oc3ccc(F)cc3F)cc2Oc2ccc(F)cc2F)c2cc[nH]c(=O)c21 [Example 13] ?
6.87

Which pEC50 value is on record for Cn1cc(-c2cc(S(C)(=O)=O)ccc2Oc2ccc(F)cc2)c2cc[nH]c(=O)c21 [Example 61] ?
6.90

Which pEC50 value is on record for CCS(=O)(=O)Nc1ccc(Oc2ccc(F)cc2F)c(-c2cn(C)c3c(=O)[nH]c(C4CCN(C(=O)C5CC5)CC4)cc23)c1 [Example 185] ?
7.21

Which pEC50 value is on record for CCS(=O)(=O)Nc1ccc(Oc2ccc(F)cc2F)c(-c2cn(C)c3c(=O)[nH]c(C(=O)N4CCCC4)cc23)c1 [Example 193] ?
6.95

Which pEC50 value is on record for Cn1cc(-c2cc(S(C)(=O)=O)ccc2OC2CCC(F)(F)CC2)c2cc[nH]c(=O)c21 [Example 25] ?
7.10

Which pEC50 value is on record for CCS(=O)(=O)c1ccc(Oc2ccc(Cl)cc2)c(-c2cn(C)c3c(=O)[nH]ccc23)c1 [Example 48] ?
6.94

---

Target: BRD4 (BDII_E352-M457) (Homo sapiens)
Construct: proliferation; Protocol
Test: TR-FRET bromodomain binding assay, second bromodomain of BRD4
Settings: His-tagged BD2, 30 nM Alexa647 probe; TR-FRET protocol A-E given per row
reportedProperty: pKi
# pKi = -log10(concentration in molar units)

Which pKi value is on record for `Cn1cc(-c2cc(S(C)(=O)=O)ccc2NCC2CCCCC2)c2cc[nH]c(=O)c21` ?
6.91

Which pKi value is on record for `Cn1cc(-c2cc(S(C)(=O)=O)ccc2OCCc2ccccc2)c2cc[nH]c(=O)c21` ?
7.00

Which pKi value is on record for `Cn1cc(-c2cc(S(C)(=O)=O)ccc2NCC(F)(F)F)c2cc[nH]c(=O)c21` ?
5.64

Which pKi value is on record for `CCS(=O)(=O)Nc1cnc(Oc2ccc(F)cc2F)c(-c2cn(C)c3c(=O)[nH]ccc23)c1` ?
8.33

Which pKi value is on record for `Cn1cc(-c2ccccc2NCC2CC2)c2cc[nH]c(=O)c21` ?
5.64

Which pKi value is on record for `Cn1cc(-c2cc(NCc3cn4c(n3)CCC4)ccc2Oc2ccc(F)cc2F)c2cc[nH]c(=O)c21` ?
7.00

Which pKi value is on record for `Cn1cc(-c2cc(CNCc3ccoc3)ccc2Oc2ccc(F)cc2F)c2cc[nH]c(=O)c21` ?
6.32

Which pKi value is on record for `Cn1cc(-c2cc(CS(C)(=O)=O)ccc2Oc2ccc(F)cc2F)c2cc(-c3cc(CS(C)(=O)=O)ccc3Oc3ccc(F)cc3F)[nH]c(=O)c21` ?
6.21

---

Target: BRD4 (BDI_K57-E168) (Homo sapiens, UniProt O60885)
Construct: BD1: amino acids K57-E168
Experiment: TR-FRET bromodomain binding assay, first bromodomain of BRD4
Conditions: His-tagged BD1, 100 nM Alexa647 probe; TR-FRET protocol A-E given per row
Exercise: for every item that follows, state its recorded pKi.
# pKi = -log10(concentration in molar units)

Which pKi value is on record for Cn1cc(-c2cc(NS(=O)(=O)Cc3ccccc3)ccc2Oc2ccc(F)cc2F)c2cc[nH]c(=O)c21 [Example 180] ?
7.46

Which pKi value is on record for Cn1cc(-c2cc(CNS(=O)(=O)C3CCCC3)ccc2Oc2ccc(F)cc2F)c2cc[nH]c(=O)c21 [Example 137] ?
6.97

Which pKi value is on record for Cn1cc(-c2cc(S(C)(=O)=O)ccc2OCCC2CC2)c2c(Cl)c[nH]c(=O)c21 [Example 109] ?
7.24

Which pKi value is on record for CCS(=O)(=O)Nc1ccc(Oc2ccc(F)cc2F)c(-c2cn(C)c3c(=O)[nH]c(C(=O)NCC4CCCC4)cc23)c1 [Example 195] ?
7.98

Which pKi value is on record for CCS(=O)(=O)Nc1ccc(OCC2CC2)c(-c2cn(C)c3c(=O)[nH]ccc23)c1C [Example 14] ?
7.14

---

Biological target: BRD4 (BDII_E352-M457) (Homo sapiens)
Construct: proliferation; Protocol
Experiment: TR-FRET bromodomain binding assay, second bromodomain of BRD4
Settings: His-tagged BD2, 30 nM Alexa647 probe; TR-FRET protocol A-E given per row
Excerpt: A time-resolved fluorescence resonance energy transfer (TR-FRET) assay was used to determine the affinities of compounds of the Examples listed in Table 1 for each bromodomain of BRD4. His-tagged first (BD1: amino acids K57-E168) and second (BD2: amino acids E352-E168) bromodomains of BRD4 were expressed and purified. An Alexa647-labeled BET-inhibitor was used as the fluorescent probe in the assay. […]
Exercise: for every item that follows, state its recorded Ki.
Report the figure in nM without appending any unit label.

Which Ki value is on record for `CCS(=O)(=O)c1ccc(Oc2cccc(Cl)c2Cl)c(-c2cn(C)c3c(=O)[nH]ccc23)c1` ?
25

Which Ki value is on record for `COC(=O)/C=C/N(c1ccc(F)cc1)c1ccc(CS(C)(=O)=O)cc1-c1cn(C)c2c(=O)[nH]ccc12` ?
47

Which Ki value is on record for `CCS(=O)(=O)C(C)(C)c1ccc(Oc2ccc(F)cc2F)c(-c2cn(C)c3c(=O)[nH]ccc23)c1` ?
26

Which Ki value is on record for `Cn1cc(-c2cc(S(C)(=O)=O)ccc2OC2CCOCC2)c2cc[nH]c(=O)c21` ?
89

Which Ki value is on record for `Cn1cc(-c2cc(S(C)(=O)=O)ccc2OCC2(C)CC2)c2cc[nH]c(=O)c21` ?
89

Which Ki value is on record for `Cn1cc(-c2cc(S(C)(=O)=O)ccc2Oc2ccc(F)cc2)c2cc[nH]c(=O)c21` ?
43

Which Ki value is on record for `Cc1ncc(CC(=O)Nc2ccc(Oc3ccc(F)cc3F)c(-c3cn(C)c4c(=O)[nH]ccc34)c2)s1` ?
81.3

Which Ki value is on record for `Cn1cc(-c2cc(NC(=O)CCc3ccccc3)ccc2Oc2ccc(F)cc2F)c2cc[nH]c(=O)c21` ?
95.3

Which Ki value is on record for `Cn1cc(-c2cc(S(C)(=O)=O)ccc2OC2Cc3ccccc3C2)c2cc[nH]c(=O)c21` ?
435

Which Ki value is on record for `Cn1cc(-c2cc(S(C)(=O)=O)ccc2OC2CCC(F)(F)CC2)c2cc[nH]c(=O)c21` ?
60

Which Ki value is on record for `Cn1cc(-c2cc(S(=O)(=O)N3CCCC3)ccc2O[C@H]2CC[C@H](N(C)C)CC2)c2cc[nH]c(=O)c21` ?
107

Which Ki value is on record for `CC(=O)Nc1ccc(C(=O)Nc2ccc(Oc3ccc(F)cc3F)c(-c3cn(C)c4c(=O)[nH]ccc34)c2)cc1` ?
163
